Tested on: HepG2-A16-CD81EGFP cells
details: HepG2; the header list (r10) describes it as the 1 µM dose, averaged response (percent)
readout: Average HepG2 3 µM response( %)
Phrase the answer as number then unit, nothing more needed.

C/C(=N\Nc1ncnc2sc(C)c(C)c12)c1ccccn1 :: 52%
CCOCCCNc1nc2cc(OC)c(OC)cc2c2nc(-c3ccccc3)nn12 :: 97%
COc1ccc2[nH]c(C[C@@H]3C[C@@H](C(C)C)[C@H](CNCc4ccccc4OC)C=C3C)nc2c1 :: 99%
COc1ccc(-c2noc(-c3cccn3CC(=O)Nc3ccccc3)n2)cc1F :: 101%
N=c1c2c(n(Cc3ccccc3)c3c1CCC3)CCC2 :: 94%
CCOc1ccc(-n2c(SCC(=O)OC)nc3sc4c(c3c2=O)CCN(C)C4)cc1 :: 112%

*Q* Form field: reported Average HepG2 3 µM response( %) of NS(=O)(=O)c1ccc(N/N=C/c2cn(-c3ccccc3)nc2-c2cccs2)cc1
*A* 91%

*Q* Further, for CC(C)C(=O)OCC(=O)[C@@]12O[C@H](C3CCCCC3)O[C@@H]1C[C@H]1[C@@H]3CCC4=CC(=O)C=C[C@]4(C)[C@H]3[C@@H](O)C[C@@]12C ?
*A* 94%

*Q* Further, for Cc1cc(C)n(-c2nnc(N3CCN(c4ccccc4)CC3)nn2)n1 ?
*A* 97%

*Q* Further, for O=C(Nc1ccc(-c2csc(Nc3cccc(C(F)(F)F)c3)n2)cc1)c1cc([N+](=O)[O-])cc(C(F)(F)F)c1 ?
*A* 101%

*Q* Further, for CCc1ccccc1OC[C@@H](O)CN[C@@H]1CCCc2ccccc21 ?
*A* 95%

*Q* Further, for COc1ccc(NC(=O)CN(C)C(=O)c2ccc(-c3ccccc3Cl)o2)cc1 ?
*A* 99%

* * *

Tested on: Plasmodium falciparum Dd2-attB (parental line), asexual blood stages
Construct: Dd2-attB, the isogenic parental line
test.name: microbe, parasite or virus in culture
Set-up: species or system P. falciparum Dd2-attB in human erythrocytes; SYBR Green-I proliferation assay, Dd2-attB parental line, asexual blood stages
details: Plasmodium falciparum, DD2, Erythrocyte, 72 h, read-out: Calculated / Average Log AC50 (M), mean of replicates, 72 h (converted)
Listing of recorded AC50 by entry.
Numeric only. Scale: M

*Q* Form field: reported AC50 of Cn1cnc(-c2nccc3c(O)nc(OCCCC(F)(F)F)nc23)c1
*A* 2.08e-05

*Q* Further, for CCOC(=O)c1c2ccc(C(=O)N3CCOCC3)cc2n2ccccc12 ?
*A* 1.26e-05

* * *

test.name: in vitro
details: human
Listing of recorded viability at 48 h, 1 µM by entry.
Numeric only. Scale: %

Below, 2 compounds whose answers are already recorded.
CCC(CC)c1cc([C@H]2CN3CC[C@H]2C[C@@H]3CN[S+](=O)([O-])c2ccccc2C#N)nc(-c2ccncc2)n1 :: 110
CCOc1cc(CNC(C)C(O)c2ccccc2)cc(Cl)c1OCC (stereo not shown) :: 90

Now for another entry.
*Q* Form field: reported viability at 48 h, 1 µM of COc1cc2c(cc1Oc1cccc(N(C)C)c1)NC(=O)C21CCN(c2cnccn2)CC1
*A* 101

* * *

Listing of recorded viability at 48 h, 3 µM by entry.
test.name: in vitro
details: human, HepG2-A16-CD81EGFP cells, uninfected
Numeric only. Scale: %

Cc1cccc(NC(=O)c2cc(S(=O)(=O)N(C)c3ccc(F)cc3)ccc2Cl)n1 :: 92
Cc1nn2c(c1-c1ccccc1-c1ccccc1)N(CCC(C)C)CCC2 :: 10.8
c1ccc(CNc2nc(NCc3ccccc3)c3ccccc3n2)cc1 :: 72
Cc1cc(Nc2ccc3ccccc3c2)n2ncnc2n1 :: 86
COc1ccc(-c2noc(-c3cccn3CC(=O)Nc3ccccc3F)n2)cc1F :: 101

Now for another entry.
*Q* Form field: reported viability at 48 h, 3 µM of CN1CCN(c2ccc3ncc(Nc4ccccc4-c4ccccc4)n3n2)CC1
*A* 97.1

These data points were gathered from paper PMC7822874.
